Test system: M14 melanoma
Test: NCI tumour cell line growth inhibition, 48 h
Kindly state TGI for each of the entries shown.
I only need the number, in µM, no unit after it.

Can you look up TGI on M14 melanoma for CN(CCCNC(=O)c1cn(C)c2c1Cc1ccccc1-2)CCCNC(=O)c1cn(C)c2c1Cc1ccccc1-2 ?
11.6

// next record CCNC(=O)OCc1c(COC(=O)NCC)c(-c2ccc(Cl)c(Cl)c2)n2c1CCC2
24.3

// next record CC(=O)[C@H]1CCC2[C@@H]3CC=C4C[C@@H]([O-])CC[C@]4(C)C3CC[C@@]21C.CC(=O)[C@H]1CCC2[C@@H]3CC=C4C[C@@H]([O-])CC[C@]4(C)C3CC[C@@]21C.CC(=O)[CH-]C(=O)c1ccccc1.CC(=O)[CH-]C(=O)c1ccccc1.Cl.[Ti+4] (stereo partly specified)
46.1

// next record Cc1ccc2c(=O)cc(-c3ccc(C)s3)[nH]c2n1
55.9

// next record COC(=O)/C=C1/OC(c2ccccc2)=C(C)C1=O
24.4

// next record Cc1c(N=C/C=C/c2ccccc2)c(=O)n(-c2ccccc2)n1C
38.9

====

Kindly state TGI for each of the entries shown.
System: MDA-MB-231 breast
Assay: NCI tumour cell line growth inhibition, 48 h

Look up TGI for this molecule: CCCSc1ccc2[nH]c(N3C(=O)/C(=C/c4ccc(SC)cc4)N=C3c3ccccc3)cc2c1
> 50 µM

// next record COc1cccc(/C=C2\S/C(=N/Nc3nc(C)c(C)s3)NC2=O)c1O
> 100 µM

// next record COc1cccc(C2SC(N)=Nc3c2c(C)nn3C(=O)Cc2ccccc2)c1 (centres undefined)
> 100 µM

// next record CC(=O)NNc1nc(C)c(C(/C=C/c2ccccc2O)=N/N=C(N)N)s1
> 100 µM

// next record CC1NC(=O)C2=C1C(=O)NC(=O)C2 (centres undefined)
> 100 µM

// next record O=C1NN(Cc2ccccc2)C(=O)N2CCC[C@@H]12
> 100 µM

// next record CCOP(=O)(OCC)C(NC(=O)C(C(F)(F)F)C(F)(F)F)c1ccccc1 (centres undefined)
> 100 µM

// next record CCC1(c2ccc(N3C(=O)c4cc(OC)c(OC)cc4C3=O)cc2)CCC(=O)NC1=O (centres undefined)
> 10 µM

// next record Clc1ccccc1-c1nnc2c(Cc3ccccc3)nc3ccccc3n12
> 100 µM

====

Kindly state GI50 for each of the entries shown.
Test system: MCF7 breast
Test: NCI tumour cell line growth inhibition, 48 h

Look up GI50 for this molecule: COc1cccc(Nc2nc3ccccc3c3occc23)c1
43.7 µM

// next record CCOc1ccn(-c2ccc(F)cc2)c(=O)c1C(=O)Nc1ccc(Oc2ccnc(N)c2Cl)c(F)c1
7.89 µM

// next record CCN(CC)CCCC(C)N/C(=C1\C(=O)NC(=O)\C1=C(/NC(C)CCCN(CC)CC)c1cccc(OC)c1)c1cccc(OC)c1 (centres undefined)
1.03 µM

// next record Cc1cc(C)c(-c2c(N)cc(Br)cc2Br)c(N)c1
4.03 µM

// next record Cn1cc(-c2cnn3c(N)c(Br)c(C4CCCNC4)nc23)cn1 (centres undefined)
13.7 µM

// next record CSc1nc2c(c(=O)n1C)CN(C1CCCCC1)C(=O)C(c1ccccc1)N2 (centres undefined)
19.3 µM

// next record CCNC(=O)Oc1ccc(/C(=C(/C)Cc2ccc(OC)cc2)c2ccc(OCCN(CC)CC)cc2)cc1
0.621 µM

// next record C/C(=C(\c1ccc(OCCN2CCCCCC2)cc1)c1ccc(OC(=O)c2ccccc2)cc1)c1ccc(Cl)cc1
0.348 µM

// next record CC(C)COc1nc2c(c(=O)n(C)c(=O)n2C)n1C
> 100 µM
